System: P. falciparum NF54
ASSAY_OVERVIEW: P. falciparum blood stage assay (SYBR Green)
Format: cell-based, Plasmodium falciparum
EXPERIMENTAL_CONTEXT: 0.625 uM, 72 h; untreated = 129
QUANTITY_KIND: P. falciparum blood-stage development (parasite DNA level fluorescence)

| MOLECULE | RESULT |
| --- | --- |
| Cc1nn(C)c(C)c1CCOc1cc(F)ccc1-c1cccc(OCCN(C)C)c1 [Compound 26c] | 127.1 |
| Cc1nn(C)c(C)c1CCOc1ccc2ccccc2c1-c1ccnc(N2CCNCC2)c1 [Compound 30a] | 115.4 |
| Cc1nn(C)c(C)c1CCOc1cccnc1-c1cccc(N2CCNCC2)c1 [Compound 12b] | 118 |
| Cc1nn(C)c(C)c1CCOc1cc(F)ccc1-c1cccc(N2CCNCC2)c1 [Compound 12f] | 118.6 |

---

Tested on: P. vivax schizonts
ASSAY_OVERVIEW: P. vivax liver stage assay, schizonts
Format: cell-based, Plasmodium vivax
EXPERIMENTAL_CONTEXT: isolate 1, 20 µM
# schizonts (fold change to DMSO) mean diff per record follows
QUANTITY_KIND: schizonts (fold change to DMSO) mean diff

| COMPOUND | RESULT |
| --- | --- |
| Cc1n[nH]c(C)c1CCOc1cc(F)ccc1-c1cccc(OCCN(C)C)c1 [Compound 26i] | 0.933 |
| Cc1nn(C)c(C)c1CCOc1ccc2ccccc2c1-c1ccnc(N2CCNCC2)c1 [Compound 30a] | 1.000 |
| Cc1nn(C)c(C)c1CCOc1cc(F)ccc1-c1cccc(OCCN(C)C)c1 [Compound 26c] | 1.000 |
| c1cncc(CCOc2cccnc2-c2cccc(N3CCNCC3)c2)c1 [Compound 12g] | 1.000 |
| Cc1nn(C)c(C)c1CCOc1ccccc1-c1cccc(N2CCNCC2)c1 [Compound 12d] | 0.967 |
| c1cncc(CCOc2ccc3ccccc3c2-c2ccnc(N3CCNCC3)c2)c1 [Compound 30c] | 0.900 |
| c1cncc(CCOc2ccccc2-c2ccnc(N3CCNCC3)c2)c1 [Compound 12j] | 0.983 |
| Fc1ccc(-c2ccnc(N3CCNCC3)c2)c(OCCc2cccnc2)c1 [Compound 12l] | 0.983 |
| Cc1n[nH]c(C)c1CCOc1cc(F)ccc1-c1ccnc(N2CCNCC2)c1 [Compound 12q] | 0.983 |

---

Tested on: HepG2 cells
ASSAY_OVERVIEW: HepG2 cytotoxicity assay (Live/Dead staining)
# IC50 per record follows

| MOLECULE | IC50 |
| --- | --- |
| Cc1n[nH]c(C)c1CCOc1cc(F)ccc1-c1ccnc(N2CCNCC2)c1 [Compound 12q] | > 20 µM |
| Cc1nn(C)c(C)c1CCOc1ccc2ccccc2c1-c1ccnc(N2CCNCC2)c1 [Compound 30a] | > 20 µM |

---

System: P. vivax hypnozoites
ASSAY_OVERVIEW: P. vivax liver stage assay, hypnozoites
Assay type: cell-based, Plasmodium vivax
EXPERIMENTAL_CONTEXT: isolate 2, 20 µM
Experimental: Finally, we evaluated the NMT-binding compounds against non-developing P. vivax hypnozoites. […] (Fig. 6A). […] We, therefore, evaluated the impact of all tested compounds on P. vivax hypnozoites using these two isolates. Plasmodium vivax liver stage assays were performed as described previously. […] The images were processed, analyzed and outlier cells were removed using IMARIS (Bitplane Inc.) image analysis software.
# hypnozoites (fold change to DMSO) mean diff per record follows
QUANTITY_KIND: hypnozoites (fold change to DMSO) mean diff

| COMPOUND | RESULT |
| --- | --- |
| Cc1nn(C)c(C)c1CCOc1cc(F)ccc1-c1cccc(N2CCNCC2)c1 [Compound 12f] | 0.931 |
| c1cncc(CCOc2ccccc2-c2ccnc(N3CCNCC3)c2)c1 [Compound 12j] | 0.897 |
| Cc1n[nH]c(C)c1CCOc1cc(F)ccc1-c1cccc(OCCN(C)C)c1 [Compound 26i] | 0.310 |

---

# P. falciparum blood-stage development (parasite DNA level fluorescence) per record follows
System: P. falciparum NF54
ASSAY_OVERVIEW: P. falciparum blood stage assay (SYBR Green)
Assay type: cell-based, Plasmodium falciparum
EXPERIMENTAL_CONTEXT: 1.25 uM, 72 h; untreated = 129
QUANTITY_KIND: P. falciparum blood-stage development (parasite DNA level fluorescence)

| MOLECULE | RESULT |
| --- | --- |
| c1cncc(CCOc2ccccc2-c2ccnc(N3CCNCC3)c2)c1 [Compound 12j] | 108.9 |
| Cc1nn(C)c(C)c1CCOc1ccccc1-c1cccc(OCCN(C)C)c1 [Compound 26b] | 124.2 |
| c1cncc(CCOc2ccc3ccccc3c2-c2ccnc(N3CCNCC3)c2)c1 [Compound 30c] | 124 |
| c1cncc(CCOc2cccnc2-c2cccc(N3CCNCC3)c2)c1 [Compound 12g] | 117.7 |

---

ASSAYED_TARGET: HsNMT1 (Homo sapiens, UniProt P30419)
Sequence (P30419 whole entry): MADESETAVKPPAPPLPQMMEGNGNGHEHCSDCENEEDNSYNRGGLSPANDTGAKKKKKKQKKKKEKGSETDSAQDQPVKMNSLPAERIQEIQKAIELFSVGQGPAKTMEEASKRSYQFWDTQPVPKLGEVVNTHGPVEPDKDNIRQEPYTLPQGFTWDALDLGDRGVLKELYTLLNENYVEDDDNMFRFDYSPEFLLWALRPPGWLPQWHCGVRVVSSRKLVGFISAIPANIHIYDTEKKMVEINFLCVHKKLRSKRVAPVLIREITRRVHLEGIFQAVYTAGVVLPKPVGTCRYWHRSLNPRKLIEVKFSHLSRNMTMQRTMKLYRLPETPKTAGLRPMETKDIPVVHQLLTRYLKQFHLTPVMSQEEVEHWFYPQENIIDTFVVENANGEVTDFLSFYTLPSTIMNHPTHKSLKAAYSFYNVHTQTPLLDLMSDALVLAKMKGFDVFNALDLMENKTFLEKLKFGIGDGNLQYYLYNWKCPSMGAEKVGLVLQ
ASSAY_OVERVIEW: NMT activity assay (CPM detection of free CoA), HsNMT
QUANTITY_KIND: log10 IC50 (log10 of the value in nM)

| COMPOUND | log10 IC50 |
| --- | --- |
| Cc1nn(C)c(C)c1CCOc1cc(F)ccc1-c1cccc(N2CCNCC2)c1 [Compound 12f] | 2.84 |
| Cc1nn(C)c(C)c1CCOc1ccccc1-c1ccnc(N2CCNCC2)c1 [Compound 12c] | 2.78 |
| Cc1n[nH]c(C)c1CCOc1cc(F)ccc1-c1cccc(N2CCNCC2)c1 [Compound 12p] | 4.36 |
| Cc1nn(C)c(C)c1CCOc1cccnc1-c1ccnc(N2CCNCC2)c1 [Compound 12a] | 3.73 |
| Fc1ccc(-c2ccnc(N3CCNCC3)c2)c(OCCc2cccnc2)c1 [Compound 12l] | 3.23 |

---

Tested on: P. falciparum NF54
ASSAY_OVERVIEW: P. falciparum blood stage assay (SYBR Green)
Format: cell-based, Plasmodium falciparum
EXPERIMENTAL_CONTEXT: 5 uM, 72 h; untreated = 129
Lab note: compare P. falciparum blood-stage development (parasite DNA level fluorescence) with 100, writing yes (1) if less and no (0) if equal or more.

| COMPOUND | DISCRETE_LABEL |
| --- | --- |
| Cc1nn(C)c(C)c1CCOc1ccc2ccccc2c1-c1ccnc(N2CCNCC2)c1 [Compound 30a] | yes (1) |
| Cc1n[nH]c(C)c1CCOc1cc(F)ccc1-c1cccc(OCCN(C)C)c1 [Compound 26i] | yes (1) |
| Cc1nn(C)c(C)c1CCOc1cccnc1-c1ccnc(N2CCNCC2)c1 [Compound 12a] | no (0) |
| Cc1nn(C)c(C)c1CCOc1cccnc1-c1cccc(N2CCNCC2)c1 [Compound 12b] | no (0) |
| Cc1nn(C)c(C)c1CCOc1cc(F)ccc1-c1cccc(OCCN(C)C)c1 [Compound 26c] | no (0) |
| Cc1nn(C)c(C)c1CCOc1ccccc1-c1cccc(OCCN(C)C)c1 [Compound 26b] | no (0) |

---

ASSAYED_TARGET: PvNMT (Plasmodium vivax, UniProt A5K1A2)
Sequence (A5K1A2 entry or part of it): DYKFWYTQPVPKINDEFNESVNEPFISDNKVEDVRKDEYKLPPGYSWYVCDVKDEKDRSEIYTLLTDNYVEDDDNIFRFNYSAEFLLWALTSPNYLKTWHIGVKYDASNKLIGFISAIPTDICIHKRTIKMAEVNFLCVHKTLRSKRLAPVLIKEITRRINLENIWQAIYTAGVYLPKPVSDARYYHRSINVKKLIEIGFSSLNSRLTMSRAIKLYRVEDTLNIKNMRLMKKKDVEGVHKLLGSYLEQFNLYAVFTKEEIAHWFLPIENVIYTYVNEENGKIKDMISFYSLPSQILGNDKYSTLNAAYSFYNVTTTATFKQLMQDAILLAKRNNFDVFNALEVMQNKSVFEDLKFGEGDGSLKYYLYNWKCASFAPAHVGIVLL
ASSAY_OVERVIEW: NMT activity assay (CPM detection of free CoA), PvNMT
EXPERIMENTAL_CONTEXT: PvNMT IC50, mean of two or more determinations
QUANTITY_KIND: log10 IC50 (log10 of the value in µM)

| COMPOUND | ASSAYED_TARGET | log10 IC50 |
| --- | --- | --- |
| Cc1n[nH]c(C)c1CCOc1cc(F)ccc1-c1cccc(N2CCNCC2)c1 [Compound 12p] | PvNMT (Plasmodium vivax, UniProt A5K1A2) | -0.43 |
| Fc1ccc(-c2ccnc(N3CCNCC3)c2)c(OCCc2cccnc2)c1 [Compound 12l] | PvNMT (Plasmodium vivax, UniProt A5K1A2) | -1.63 |
| Cc1nn(C)c(C)c1CCOc1ccccc1-c1ccnc(N2CCNCC2)c1 [Compound 12c] | PvNMT (Plasmodium vivax, UniProt A5K1A2) | -2.02 |
| Cc1n[nH]c(C)c1CCOc1ccc2ccccc2c1-c1cccc(OCCN(C)C)c1 [Compound 30f] | PvNMT (Plasmodium vivax, UniProt A5K1A2) | 1.40 |
| c1cncc(CCOc2cccnc2-c2cccc(N3CCNCC3)c2)c1 [Compound 12g] | PvNMT (Plasmodium vivax, UniProt A5K1A2) | -0.98 |
| Cc1nn(C)c(C)c1CCOc1ccc2ccccc2c1-c1cccc(OCCN(C)C)c1 [Compound 30b] | PvNMT (Plasmodium vivax, UniProt A5K1A2) | 1.30 |
| Cc1n[nH]c(C)c1CCOc1ccccc1-c1ccnc(N2CCNCC2)c1 [Compound 12n] | PvNMT (Plasmodium vivax, UniProt A5K1A2) | -0.22 |
| Cc1nn(C)c(C)c1CCOc1ccccc1-c1cc(N2CCNCC2)ncn1 [Compound 16a] | PvNMT (Plasmodium vivax, UniProt A5K1A2) | 0.97 |
| Cc1n[nH]c(C)c1CCOc1ccccc1-c1cccc(OCCN(C)C)c1 [Compound 26h] | PvNMT (Plasmodium vivax, UniProt A5K1A2) | 0.19 |
| Cc1nn(C)c(C)c1CCOc1cc(F)ccc1-c1cccc(N2CCNCC2)c1 [Compound 12f] | PvNMT (Plasmodium vivax, UniProt A5K1A2) | -1.80 |
| Cc1nn(C)c(C)c1CCOc1cc(F)ccc1-c1cccc(OCCN(C)C)c1 [Compound 26c] | PvNMT (Plasmodium vivax, UniProt A5K1A2) | -1.53 |
| Cc1nn(C)c(C)c1CCOc1ccccc1-c1cccc(OCCN(C)C)c1 [Compound 26b] | PvNMT (Plasmodium vivax, UniProt A5K1A2) | -1.08 |
| CN(C)CCOc1cccc(-c2c(OCCc3cccnc3)ccc3ccccc23)c1 [Compound 30d] | PvNMT (Plasmodium vivax, UniProt A5K1A2) | 0.86 |
| Cc1nn(C)c(C)c1CCOc1ccccc1-c1cccc(N2CCNCC2)c1 [Compound 12d] | PvNMT (Plasmodium vivax, UniProt A5K1A2) | -1.31 |
| Cc1n[nH]c(C)c1CCOc1ccccc1-c1cc(N2CCNCC2)ncn1 [Compound 16f] | PvNMT (Plasmodium vivax, UniProt A5K1A2) | 1.15 |
| Cc1n[nH]c(C)c1CCOc1cccnc1-c1cccc(OCCN(C)C)c1 [Compound 26g] | PvNMT (Plasmodium vivax, UniProt A5K1A2) | 1.29 |
| c1cncc(CCOc2cccnc2-c2ccnc(N3CCNCC3)c2)c1 [Compound 12h] | PvNMT (Plasmodium vivax, UniProt A5K1A2) | -0.36 |
| CN(C)CCOc1cccc(-c2ccccc2OCCc2cccnc2)c1 [Compound 26e] | PvNMT (Plasmodium vivax, UniProt A5K1A2) | 1.11 |
